Listing of entries alongside the reported Plant response rating, Crabgrass.
Test system: crabgrass
measurement-description: Test B pre/postemergence crabgrass
Type: in vivo, Digitaria sanguinalis
condition-context: Preemergence, Rate 62 g/ha; scale of 0 to 10 where 0 is no effect and 10 is complete control

[
  {
    "smiles-data": "CC(C)N(C(=O)n1oc(=O)n(C[Si](C)(C)C)c1=O)c1ccc(F)cc1F",
    "Plant response rating, Crabgrass": 0
  },
  {
    "smiles-data": "CCC(=O)Cn1c(=O)on(C(=O)N(c2ccc(F)cc2F)C(C)C)c1=O",
    "Plant response rating, Crabgrass": 9
  },
  {
    "smiles-data": "CC(=O)OCCCCn1c(=O)on(C(=O)N(c2ccc(F)cc2F)C(C)C)c1=O",
    "Plant response rating, Crabgrass": 0
  },
  {
    "smiles-data": "CC(C)N(C(=O)n1oc(=O)n(CCC#N)c1=O)c1ccc(Cl)cc1",
    "Plant response rating, Crabgrass": 4
  }
]
